system: K-562 leukemia; test: NCI-60 one-dose screen, 48 h (100 = growth as untreated, 0 = no growth, -100 = all killed); details: 10 µM unless noted
About 83,000 compounds went through this panel and 20% of them were active in at least one assay; those are over-represented in the sample as a whole.
QUANTITY: growth (%)
Use % as the unit, but write only the number.

COMPOUND | UNIT OF MEASUREMENT | growth
Cc1nc2ccc(C(=O)NCc3cc(C(=O)O)c(C)o3)cc2nc1C | % | 110
CCCCN1CCN(c2ccc3nc(-c4ccc5nc(-c6ccc(OCC)c(OCC)c6)[nH]c5c4)[nH]c3c2)CC1 | % | -37.1
c1ccc2c(c1)nc(-n1ccnc1)c1nc3ccccc3n12 | % | 88.1
Cc1nc(Nc2ccc(N)cc2)c2ccccc2n1 | % | 74.5
C/C(=N\NC(N)=S)c1nc2ccc(Cl)cc2[nH]1 | % | 39.5
CCCCCCCSc1ccc(C(=O)O)cc1 | % | 105

Lab note: measured growth of O=C(NC1CCOCC1)c1ccc2c(c1)CN(c1ncc(Cc3cccc(-n4cccn4)c3)s1)CC2 was 58.7

Documented growth of CC(C)(C)OC(=O)N1Cc2cc3ccccc3nc2C1CO (stereo not given) : 133

growth measured on CN1CCN(CCCOc2ccc3nc(Nc4cc(Cl)cc(Cl)c4)ccc3c2)CC1 = -61.8

The measured growth associated with N[C@@H]1CCC[C@H]1NCCCCN1C(=O)c2cccc3cccc(c23)C1=O reads 60.4

Quick note, growth for N=C(N)c1ccc(-c2ccc(-c3ccc(Cl)c(Cl)c3)o2)nc1 landed at -1.03

###

test system: OVCAR-3 ovarian; experiment: NCI-60 one-dose screen, 48 h; details: 10 µM unless noted
Compounds without any hit were thinned out: in the full panel of roughly 83,000, 20% have a hit. The source made the active and inactive calls. How the source made its calls: active means growth percent below 10; inactive means the rest.
Pick from active, inactive when you respond.

COMPOUND | LABEL CLASS
N#Cc1c(-c2ccc(C(F)(F)F)cc2)cc(N2CC(O)C2)n2c1nc1ccccc12 | inactive

## Input Assay outcome for O=C1CC(c2ccc3c(c2)OCO3)Nc2cc3c(cc21)OCO3 (stereo not given) : what was it?
## Output active

## Input Could you please tell me the result logged for CC(=O)Nc1ccc(C(=O)/C=C/c2ccccc2)cc1 in this assay?
## Output inactive

## Input Fill in: this test's call for CCC(C)NCc1ccccc1 (stereo not given) is ___
## Output inactive

## Input How did this test come out for C[C@@H](C[C@H](CCOCc1cccnc1)c1ccccc1)c1cc2ccccc2o1 ?
## Output inactive

## Input Can you look up the reported call for O=c1[nH]nc(-c2ccc(Cl)cc2)cc1Cc1ccccc1 for me?
## Output inactive

###

Tested on: HCT-116 colon
Test: NCI-60 one-dose screen, 48 h (100 = growth as untreated, 0 = no growth, -100 = all killed)
Conditions: 10 µM unless noted
Protocol: Growth inhibition of the HCT-116 human tumor cell line is measured as a screen for anti-cancer activity. Cells are grown in 96 well plates and exposed to the test compound for 48 hours. Compounds are tested at a single concentration, which is 10^-5 M for most compounds. The reported endpoint is percent growth (GI% or GIPRCNT), where numbers from 0 - 100% represent growth inhibition, and numbers from -100% - 0 represent cell death. For example, a value of 40 represents 60% growth inhibition. […]
This is part of a sample that, as a whole, favours compounds with a hit. Of some 83,000 tested, about 20% had one in any assay. Active and inactive are the calls of the source. How the source made its calls: active means growth percent below 10; inactive means the rest.
# key: entry, value: growth

Worked examples, 8 compounds total:
COMPOUND | growth
O[C@H]1CO[C@H]2[C@@H]1OC[C@@H]2Oc1ccc(Nc2ccnc(Nc3ccc(O[C@H]4CO[C@H]5[C@@H]4OC[C@@H]5O)c(Cl)c3)n2)cc1Cl | 9.14% (active)
COc1ccc(Cn2cnc3cc(C(=O)Nc4cccc5ccccc45)ccc32)c(OC)c1 | 10.3% [30 µM] (inactive)
CCOC(=O)c1sc(-c2ccc(OS(=O)(=O)c3ccc(C(C)(C)C)cc3)c(C=O)c2)nc1C | 15.2% (inactive)
O=C1Nc2ccccc2SC1c1ccccc1Cl (centres undefined) | 105% (inactive)
C[C@@H]1CC[C@@H]2[C@@H]1[C@H](OC(=O)c1ccc3ccccc3c1)[C@]1(C3CCCCC3)C[C@@H](OC(=O)CO)[C@@]2(C)O1 | 28.3% (inactive)
CC(C)c1ccc(C(=O)OC(=O)c2ccc(C(C)C)cc2)cc1 | 97.4% (inactive)
O=C(/C=C/C12c3ccccc3C(c3ccccc31)C1C(=O)NC(=O)C12)c1ccc(Cl)cc1 (centres undefined) | -27.8% (active)
Clc1ccc2c(NCCCN3CCN(c4nc(-n5ccnc5)nc5ccccc45)CC3)ccnc2c1 | 72.8% (inactive)

// growth value for COc1cc(C(=O)/C=C/c2c(-c3ccc(F)cc3)nc3ncccn23)cc(OC)c1OC : 17.7% (inactive)

Reported growth ( O=c1cc(-c2ccc(OCc3ccccc3)cc2)oc2c(I)c(OCc3ccccc3)cc(OCc3ccccc3)c12 ) = 95.8% (inactive)

// growth value for N=C(N)c1ccc(-c2ccc(-c3ccc(Cl)cc3Cl)o2)nc1 : -75.5% (active)

Measured growth, C(=C\c1nc2ccccc2[nH]1)/c1nc2ccccc2[nH]1 : 104% (inactive)

###

system: HS 578T breast; assay: NCI-60 one-dose screen, 48 h (100 = growth as untreated, 0 = no growth, -100 = all killed); conditions: 10 µM unless noted
This is part of a sample that, as a whole, favours compounds with a hit. Of some 83,000 tested, about 20% had one in any assay.
# maps each entry to its growth
Give the value, in units of %, as a plain number.

For orientation, consider the following solved cases.
COMPOUND | UNIT OF MEASUREMENT | ENDPOINT RESULT
CCC(C)NCc1ccccc1 (stereo unspecified) | % | 105
C/C(Cc1ccc(Cl)cc1)=C(/c1ccc(Cl)cc1)c1ccc(OCCN(C)C)cc1 | % | 61

Bench note, HS 578T breast: entry Cc1c(Cl)cccc1NS(=O)(=O)c1ccccc1 , its growth = 102

###

Quick reference: growth of the listed items.
test system: UO-31 renal; assay: NCI-60 one-dose screen, 48 h (100 = growth as untreated, 0 = no growth, -100 = all killed); settings: 10 µM unless noted
Compounds without any hit were thinned out: in the full panel of roughly 83,000, 20% have a hit.
Give the value, in units of %, as a plain number.

Observe how each entry below is paired with its result.
COMPOUND | ENDPOINT RESULT
COc1ccc(Oc2nc(Nc3ccc(N4CCOCC4)nc3)ncc2NC(=O)c2cc(OC)cc(OC)c2)cc1 | 56.3
C=CCOc1cccc(/C=C2\SC(=Nc3ccc(O)cc3)NC2=O)c1 | 20.7
O=C(/C=C/C12c3ccccc3C(c3ccccc31)C1C(=O)N(c3ccccc3)C(=O)C12)c1ccc(Cl)cc1 (stereo not given) | -37.1
O=C(c1ccccc1)c1ccc(N2C(=O)C3C4c5ccccc5C(/C=C/C(=O)c5ccccn5)(c5ccccc54)C3C2=O)cc1 (stereo not given) | -37.4

Field: next compound
Please fill in: growth reported for O=C(/C=C/C12c3ccccc3C(c3ccccc31)C1C(=O)NC(=O)C12)c1ccc(Cl)cc1 (stereo not given) = -55.2

###

Tested on: MOLT-4 leukemia
Experiment: NCI-60 one-dose screen, 48 h (100 = growth as untreated, 0 = no growth, -100 = all killed)
Settings: 10 µM unless noted
Protocol: Growth inhibition of the MOLT-4 human tumor cell line is measured as a screen for anti-cancer activity. Cells are grown in 96 well plates and exposed to the test compound for 48 hours. Compounds are tested at a single concentration, which is 10^-5 M for most compounds. The reported endpoint is percent growth (GI% or GIPRCNT), where numbers from 0 - 100% represent growth inhibition, and numbers from -100% - 0 represent cell death. For example, a value of 40 represents 60% growth inhibition. […]
About 83,000 compounds went through this panel and 20% of them were active in at least one assay; those are over-represented in the sample as a whole.
growth values by entry
# number only, unit % dropped from output

COMPOUND | growth [%]
OC(COc1cccc2ccccc12)CN1CCN(c2ccccc2)CC1 (centres undefined) | 107
Cc1cc(-c2noc(C(F)(F)F)n2)ccc1N1CCN(c2cc(C(=O)N(C)C)no2)CC1 | 71.5
C=C1C(=O)O[C@H]2[C@H]1CC/C(COC(=O)/C=C\C(=O)NCc1ccc(Cn3c(=O)sn(CCCC)c3=O)cc1)=C\CC[C@@]1(C)O[C@@H]21 | -17.4

Now for a further compound.
Value of measured growth for the entry CCOc1ccc(-c2nc3ccc(-c4nc5ccc(N6CCN(C)CC6)cc5[nH]4)cc3[nH]2)cc1OCC : 9.04

###

tested on: UO-31 renal; test: NCI-60 one-dose screen, 48 h; details: 10 µM unless noted
This is part of a sample that, as a whole, favours compounds with a hit. Of some 83,000 tested, about 20% had one in any assay. The source made the active and inactive calls. How the source made its calls: active means growth percent below 10; inactive means the rest.
Output constraint: value belongs to label 1 = active, label 0 = inactive

MOLECULE | LABEL CLASS
COc1cc2oc(-c3cccc(C(=O)Nc4ccc(C)cc4)c3)cc(=O)c2c(OC)c1OC | label 0
Cc1cc(-c2ccccc2)cc(SC#N)[n+]1[O-] | label 0
CCCCS(=O)(=O)Oc1ccc(-c2nc(C)c(C(=O)OCC)s2)cc1C=O | label 0
C=C(C)[C@@H]1CC[C@]2(CO)CC[C@]3(C)[C@H](CC[C@@H]4[C@@]5(C)C=C(C#N)C(=O)C(C)(C)[C@@H]5CC[C@]43C)[C@@H]12 | label 1
CCc1c(C(=O)N[C@@H]2c3cc(Cl)ccc3CC[C@@H]2O)[nH]c(C)c1C(C)=O | label 0
CC12CC(C#N)CCC1O2 (centres undefined) | label 0
CC1(C)N=C(N)N=C(N)N1c1cccc(CN)c1 | label 0
O=C(CCl)N1c2cccc3cccc(c23)N(C(=O)CCl)C1c1cn(-c2ccccc2)nc1-c1cccc([N+](=O)[O-])c1 | label 0

Then this molecule:
## Input Lab log entry: COc1ccc(C2CC(c3ccccc3)=NN2c2nc(C)c(C(C)=O)s2)cc1 (centres undefined) — outcome as called in the assay?
## Output label 0
